methodSummary: Effective half life in Sprague-Dawley rat at 2 mg/kg, iv and 5 mg/kg, po
Type: ADME, organism-based
conditionContext: in vivo, read-out: t1/2eff (converted)
Tick YES if half-life is 20 min or greater. Tick NO if half-life is less than 20 min.

Task: Tell me whether half-life is at least 20 min here: CCCCCOC(=O)N1CCN(C(=O)[C@H](CCC(=O)O)NC(=O)c2cc(N3CCC(C(N)=O)CC3)cc(-c3ccccc3)n2)CC1
Result: YES

Task: Exam item: decide whether the reported half-life for CCCCOC(=O)N1CCN(C(=O)[C@H](CCC(=O)O)NC(=O)c2cc(N3CCC(C(=O)N(CC)CC)CC3)cc(-c3ccccc3)n2)CC1 is at least 20 min.
Result: YES

Task: Could you please find out whether CCCCCOC(=O)N1CCN(C(=O)[C@H](CCC(=O)O)NC(=O)c2cc(N3CC[C@@H](OCC(=O)N(CC)CC)C3)cc(-c3ccccc3)n2)CC1 has half-life that meets 20 min or exceeds it?
Result: NO

Task: Reported half-life reaches at least 20 min for CCCCCOC(=O)N1CCN(C(=O)[C@H](CCC(=O)O)NC(=O)c2cc(N3CC[C@H](OCC(=O)N(C)C)C3)cc(-c3ccccc3)n2)CC1 ?
Result: NO

Task: Could you tell me if the measured half-life of CCCCCOC(=O)N1CCN(C(=O)[C@H](CCC(=O)O)NC(=O)c2cc(N3CCN(C)CC3)cc(-c3ccccc3)n2)CC1 reaches 20 min or more?
Result: YES

Task: Could you please find out whether CCCCCOC(=O)N1CCN(C(=O)[C@H](CCC(=O)O)NC(=O)c2cc(N3CCC(CCN(C)C)CC3)cc(-c3ccccc3)n2)CC1 has half-life that meets 20 min or exceeds it?
Result: YES

Task: Decide: is the reported value of half-life for CCCCCOC(=O)N1CCN(C(=O)[C@H](CCC(=O)O)NC(=O)c2cc(N3CCC(C(=O)N4CCC4)CC3)cc(-c3ccccc3)n2)CC1 equal to or greater than 20 min?
Result: NO

---

methodSummary: Solubility at pH 6.5
Format: physicochemical
conditionContext: buffer
valueType: solubility (µM)
Use µM as the unit, but write only the number.

Task: What solubility value was documented for this compound, CCCCOC(=O)N1CCN(C(=O)[C@H](CCC(=O)O)NC(=O)c2cc(N3CCC(C(=O)N4CCCC4)CC3)cc(-c3ccccc3)n2)CC1 ?
Result: 195

Task: Entry CCCCCOC(=O)N1CCN(C(=O)[C@H](CCC(=O)O)NC(=O)c2cc(N3CCC(C(=O)N4CCCC4)CC3)cc(-c3ccccc3)n2)CC1 : reported solubility = ?
Result: 48

---

methodSummary: Metabolic stability in rat microsomes
Assay type: ADME, Microsome
valueType: Stability

Task: Give the measured Stability of CCCCCOC(=O)N1CCN(C(=O)[C@H](CCC(=O)O)NC(=O)c2cc(N3CC[C@@H](OCC(=O)N(CC)CC)C3)cc(-c3ccccc3)n2)CC1 .
Result: Stable

Task: Dear colleague, I am looking for the recorded Stability of the following compound: CCCCCOC(=O)N1CCN(C(=O)[C@H](CCC(=O)O)NC(=O)c2cc(N3CCN(CCN)CC3)cc(-c3ccccc3)n2)CC1
Result: Stable

Task: What does the record list as Stability for CCCCCOC(=O)N1CCN(C(=O)[C@H](CCC(=O)O)NC(=O)c2cc(N3CCCC(OC)C3)cc(-c3ccccc3)n2)CC1 (some centres undefined) ?
Result: Stable

Task: Dear colleague, I am looking for the recorded Stability of the following compound: CCCOC(=O)N1CCN(C(=O)[C@H](CCC(=O)O)NC(=O)c2cc(N3CCC(C(=O)N(CC)CC)CC3)cc(-c3ccccc3)n2)CC1
Result: Stable

Task: If you can, please state the reported Stability value of CCCCCOC(=O)N1CCN(C(=O)[C@H](CCC(=O)O)NC(=O)c2cc(N3CCCC(CNC(C)=O)C3)cc(-c3ccccc3)n2)CC1 (some centres undefined) .
Result: Stable

Task: Which Stability value is on record for CCCCOC(=O)N1CCN(C(=O)[C@H](CCC(=O)O)NC(=O)c2cc(N3CCC(C(=O)NC(C)C)CC3)cc(-c3ccccc3)n2)CC1 ?
Result: Stable

Task: Endpoint output: Stability of CCCCCOC(=O)N1CCN(C(=O)[C@H](CCC(=O)O)NC(=O)c2cc(N3CCC[C@@H](O)C3)cc(-c3ccccc3)n2)CC1 . Value?
Result: Stable

Task: Need Stability of CCCCOC(=O)N1CCN(C(=O)[C@H](CCC(=O)O)NC(=O)c2cc(N3CCC(CN(C)C)CC3)cc(-c3ccccc3)n2)CC1 , thanks.
Result: Stable

Task: I have this compound here, CCCCCOC(=O)N1CCN(C(=O)[C@H](CCC(=O)O)NC(=O)c2cc(N3CC[C@H](OCC(=O)N(C)C)C3)cc(-c3ccccc3)n2)CC1 , and I need its recorded Stability.
Result: Stable

Task: Please look up its Stability: CCCCOC(=O)N1CCN(C(=O)[C@H](CCC(=O)O)NC(=O)c2cc(N3CCC(CN4CCCC4=O)CC3)cc(-c3ccccc3)n2)CC1
Result: Stable

Others:
Task: Which Stability value belongs to CCCCOC(=O)N1CCN(C(=O)[C@H](CCC(=O)O)NC(=O)c2cc(N3CCC(C(=O)N(CC)CC)CC3)cc(-c3ccccc3)n2)CC1 ?
Result: Stable

Task: For the compound shown here, CCCCCOC(=O)N1CCN(C(=O)[C@H](CCC(=O)O)NC(=O)c2cc(N3CCC(C(=O)N4CCCC4)CC3)cc(-c3ccccc3)n2)CC1 , give the reported Stability.
Result: Stable

Task: Which value of Stability has been reported for CCCCCOC(=O)N1CCN(C(=O)[C@H](CCC(=O)O)NC(=O)c2cc(N3CCC(C(=O)NC)CC3)cc(-c3ccccc3)n2)CC1 in the records?
Result: Stable

Task: Can you look up the measured Stability of CCCCCOC(=O)N1CCN(C(=O)[C@H](CCC(=O)O)NC(=O)c2cc(N3CCC(CNC)CC3)cc(-c3ccccc3)n2)CC1 for me?
Result: Stable

---

methodSummary: Volume of distribution at steady state in Sprague-Dawley rat at 2 mg/kg, iv and 5 mg/kg, po
Type: ADME, organism-based
conditionContext: in vivo, read-out: Vdss
Output schema: class label derived from Vd. Mapping: lower: < 0.8 L/kg; middle: ≥ 0.8 L/kg and < 2 L/kg; upper: ≥ 2 L/kg

Task: Bin this entry: CCCCCOC(=O)N1CCN(C(=O)[C@H](CCC(=O)O)NC(=O)c2cc(N3CCC(C(=O)N4CCC4)CC3)cc(-c3ccccc3)n2)CC1
Result: lower

Task: Form: Item = CCCCCOC(=O)N1CCN(C(=O)[C@H](CCC(=O)O)NC(=O)c2cc(N3CCN(C)CC3)cc(-c3ccccc3)n2)CC1 ; Class = ?
Result: upper

Task: Lab note: sort CCCCCOC(=O)N1CCN(C(=O)[C@H](CCC(=O)O)NC(=O)c2cc(N3CCN(C(C)=O)CC3)cc(-c3ccccc3)n2)CC1 into the matching Vd band.
Result: upper

Task: Category of CCCCCOC(=O)N1CCN(C(=O)[C@H](CCC(=O)O)NC(=O)c2cc(N3CCCC(CN4CCCC4)C3)cc(-c3ccccc3)n2)CC1 (stereo partly drawn) :
Result: middle

Task: // return the class label for CCCCCOC(=O)N1CCN(C(=O)[C@H](CCC(=O)O)NC(=O)c2cc(N3CC[C@@H](OCC(=O)N(CC)CC)C3)cc(-c3ccccc3)n2)CC1
Result: upper

Task: Hello team, could you let me know which band the following compound falls into: CCCCCOC(=O)N1CCN(C(=O)[C@H](CCC(=O)O)NC(=O)c2cc(N3CCC(C(=O)N(CC)CC)CC3)cc(-c3ccccc3)n2)CC1
Result: upper

Task: Assign a category based on measured Vd for CCCCCOC(=O)N1CCN(C(=O)[C@H](CCC(=O)O)NC(=O)c2cc(N3CCC(C(N)=O)CC3)cc(-c3ccccc3)n2)CC1 and give only the class name.
Result: upper

Task: Hey, which category is CCCCCOC(=O)N1CCN(C(=O)[C@H](CCC(=O)O)NC(=O)c2cc(N3CCC(C(=O)NCC)CC3)cc(-c3ccccc3)n2)CC1 in, do you know?
Result: lower

Task: Class for CCCCOC(=O)N1CCN(C(=O)[C@H](CCC(=O)O)NC(=O)c2cc(N3CCC(C(=O)N(CC)CC)CC3)cc(-c3ccccc3)n2)CC1 ?
Result: middle

Task: Assign a category based on measured Vd for CCCCOC(=O)N1CCN(C(=O)[C@H](CCC(=O)O)NC(=O)c2cc(N3CCC(C(=O)N4CCCC4)CC3)cc(-c3ccccc3)n2)CC1 and give only the class name.
Result: lower

Task: Field: class (Vd) — entry: CCCCCOC(=O)N1CCN(C(=O)[C@H](CCC(=O)O)NC(=O)c2cc(N3CCC(CCN(C)C)CC3)cc(-c3ccccc3)n2)CC1
Result: upper

Task: Which bin should I file CCCCCOC(=O)N1CCN(C(=O)[C@H](CCC(=O)O)NC(=O)c2cc(N3CCC(C(=O)N4CCCC4)CC3)cc(-c3ccccc3)n2)CC1 under?
Result: lower
